All figures here come from patent US7176224B2.

Tested on: huPPARγ
Assay Protocol: Cotransfection assay in CV-1 cells, luciferase reporter
Format: cell-based, human
Condition Description: GAL4 chimeric system, relative to agonist reference molecule
Below is a list of entries, each paired with its recorded huPPARγ CTF Efficacy value.
Measurement Name: huPPARγ CTF Efficacy (%)

>>> observed_value("Cc1oc(-c2ccc(-c3cccs3)cc2)nc1CCOc1ccc(CC(C)(Oc2ccc(C(C)(C)C)cc2)C(=O)O)cc1 (centres unmarked)")
80
>>> observed_value("COc1cccc(OC(C)(Cc2ccc(OCCc3nc(-c4ccc(-c5ccccc5)cc4)oc3C)cc2)C(=O)O)c1 (centres unmarked)")
88
>>> observed_value("CCC(Cc1ccc(OCCc2nc(-c3cccc(-c4cccs4)c3)oc2C)cc1)(Oc1ccccc1)C(=O)O (centres unmarked)")
105
>>> observed_value("Cc1cccc(OC(C)(Cc2ccc(OCCc3nc(-c4cccc(-c5ccccc5)c4)oc3C)cc2)C(=O)O)c1 (centres unmarked)")
145
>>> observed_value("Cc1oc(-c2cccc(-c3ccccc3)c2)nc1CCOc1ccc(CC(C)(Oc2ccc3c(c2)OCO3)C(=O)O)cc1 (centres unmarked)")
101
>>> observed_value("Cc1oc(-c2cccc(-c3cccs3)c2)nc1CCOc1ccc(CC(C)(Oc2ccc(Cl)cc2)C(=O)O)cc1 (centres unmarked)")
100
>>> observed_value("CCC(Cc1ccc(OCCc2nc(-c3cccc(-c4ccccc4)c3)oc2C)cc1)(Oc1ccccc1)C(=O)O (centres unmarked)")
108
>>> observed_value("CC(C)(Oc1ccc(C(=O)c2ccc(Cl)cc2)cc1)C(=O)O [Fenofibric acid, reference compound]")
0
